List of Kd values.
Target: T1, SCRIB-3/4 (MBP fusion of the third of the four PDZ domains of SCRIB) (human, UniProt Q14160-1 997-1093)
T1 construct: also called MBP-PDZ analyte SCRIB-3/4; source: E. coli BL21 DE3, purified (amylose column, Superdex 75 gel filtration)
T1 sequence (looked up): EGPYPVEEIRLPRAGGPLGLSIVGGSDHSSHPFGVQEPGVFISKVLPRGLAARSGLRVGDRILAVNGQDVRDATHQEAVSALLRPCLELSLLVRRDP
Assay: SPR
Conditions: both partners purified
Ends that are not written are not given here. * marks the point of attachment. Biotin = O=C1N[C@H]2[C@H](CS[C@H]2CCCCC(=O)*)N1
Numbers only; they are read as µM.

INSERT INTO measurements (binder, measured_metric, recorded_number) VALUES
  ('Biotin-VMRLQSETSV (also called VANG2 long; source: synthetic peptide (JPT Peptide Technologies)) [VANG2_10 (long peptide of Vang-like protein 2: the last ten residues)]', 'Kd', 12),
  ('Biotin-QGRWDHETIV (also called TMEM215 long; source: synthetic peptide (JPT Peptide Technologies)) [TMEM215_10 (long peptide of Transmembrane protein 215: the last ten residues)]', 'Kd', 128);

*Q* What does the record list as Kd for Biotin-VKRNSKETVV (also called MARCH3 long; source: synthetic peptide (JPT Peptide Technologies)) [MARCH3_10 (long peptide of E3 ubiquitin-protein ligase MARCH3: the last ten residues)] ?
*A* 100

*Q* What Kd value was documented for this binder, Biotin-GSGAGHETIV (also called TMEM215 short; source: synthetic peptide (JPT Peptide Technologies)) [TMEM215_05 (short peptide of Transmembrane protein 215: GSGAG and the last five residues)] ?
*A* 213

*Q* Which Kd is listed for Biotin-GSGAGVETVV (also called MAS short; source: synthetic peptide (JPT Peptide Technologies)) [MAS_05 (short peptide of Proto-oncogene Mas: GSGAG and the last five residues)] ?
*A* 158
